TARGET_UNDER_TEST: NACHT, LRR and PYD domains-containing protein 3 (Homo sapiens)
Sequence (Q96P20 whole entry, the tested form may be a part): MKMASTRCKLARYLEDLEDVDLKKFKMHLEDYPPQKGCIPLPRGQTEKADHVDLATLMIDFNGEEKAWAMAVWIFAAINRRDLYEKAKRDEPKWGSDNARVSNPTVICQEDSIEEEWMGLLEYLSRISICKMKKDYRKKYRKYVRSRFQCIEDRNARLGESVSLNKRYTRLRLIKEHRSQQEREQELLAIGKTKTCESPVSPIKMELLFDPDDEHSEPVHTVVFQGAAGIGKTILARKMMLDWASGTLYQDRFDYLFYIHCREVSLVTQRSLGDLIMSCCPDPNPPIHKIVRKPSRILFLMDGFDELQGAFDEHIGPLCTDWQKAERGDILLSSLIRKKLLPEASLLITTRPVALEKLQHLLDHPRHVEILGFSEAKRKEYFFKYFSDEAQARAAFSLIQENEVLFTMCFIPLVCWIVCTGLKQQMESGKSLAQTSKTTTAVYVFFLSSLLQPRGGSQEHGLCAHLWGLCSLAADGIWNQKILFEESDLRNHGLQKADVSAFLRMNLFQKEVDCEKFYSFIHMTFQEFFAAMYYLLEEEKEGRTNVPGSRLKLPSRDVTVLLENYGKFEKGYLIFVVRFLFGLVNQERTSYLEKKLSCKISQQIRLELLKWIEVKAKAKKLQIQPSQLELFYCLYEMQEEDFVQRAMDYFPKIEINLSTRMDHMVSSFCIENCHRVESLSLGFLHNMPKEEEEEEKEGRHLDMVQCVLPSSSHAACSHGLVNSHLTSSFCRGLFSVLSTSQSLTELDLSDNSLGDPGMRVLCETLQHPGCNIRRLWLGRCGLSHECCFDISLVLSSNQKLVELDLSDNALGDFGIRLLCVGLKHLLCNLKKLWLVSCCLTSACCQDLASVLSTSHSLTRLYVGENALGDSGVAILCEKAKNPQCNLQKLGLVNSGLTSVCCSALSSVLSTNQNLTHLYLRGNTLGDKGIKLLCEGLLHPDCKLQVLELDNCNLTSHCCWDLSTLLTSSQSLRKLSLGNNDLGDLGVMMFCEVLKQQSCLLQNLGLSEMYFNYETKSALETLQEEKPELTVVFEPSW
EXPERIMENTAL_PROTOCOL: Binding affinity to human recombinant NLRP3 inflammasome
MEASURED_QUANTITY: Kd (nM)

>>> value("COC(=O)c1ccc(-c2cn(Cc3cc(Cl)ccc3OC)nn2)nc1")
860

[A] COc1ccc(Cl)cc1Cn1cc(C(=O)N2CC(F)(F)C2)nn1
[B] COc1ccc(Cl)cc1Cn1cc(-c2ccc(C(=O)N3CCC3)cc2)nn1
Which of these two has the smaller recorded Kd: A or B ? Please indicate the selected item by its label.
A
